# target.desc: CDK2/Cyclin E (Homo sapiens (Human))
# protocol.notes: CDK2/Cyclin E kinase assay (Nanosyn, Caliper microfluidic)
# run.parameters: 12-point dose-response, singlicate, at Km for ATP; ATP 100 μM; 3 hr

[
  {
    "molecule": "CN1CCN(S(=O)(=O)c2ccc(Nc3ncc4cc5n(c4n3)C3(CCCCC3)CC(=O)N5)cc2)CC1 [Compound 51]",
    "target.desc": "CDK2/Cyclin E (Homo sapiens (Human))",
    "IC50": "5 nM"
  },
  {
    "molecule": "NS(=O)(=O)c1ccc(Nc2ncc3cc4n(c3n2)C2(CCCCC2)C(=O)N[C@H]4CF)cc1 [Compound 18]",
    "target.desc": "CDK2/Cyclin E (Homo sapiens (Human))",
    "IC50": "2.7 nM"
  },
  {
    "molecule": "O=C1NCC2(CCCCC2)n2c1cc1cnc(Nc3ccc(C(=O)N4CCNCC4)cc3)nc12 [Compound 55]",
    "target.desc": "CDK2/Cyclin E (Homo sapiens (Human))",
    "IC50": "1 nM"
  },
  {
    "molecule": "O=C(c1ccc(Nc2ncc3cc4n(c3n2)C2(CCCCC2)C(=O)NN4)cc1)N1CCNCC1 [Compound 61]",
    "target.desc": "CDK2/Cyclin E (Homo sapiens (Human))",
    "IC50": "4 nM"
  },
  {
    "molecule": "C[C@@H]1NC(=O)C2(CCCCC2)n2c1cc1cnc(Nc3ccc(S(N)(=O)=O)cc3)nc12 [Compound 19]",
    "target.desc": "CDK2/Cyclin E (Homo sapiens (Human))",
    "IC50": "4.8 nM"
  }
]

* * *

# target.desc: CDK1/Cyclin B1 (Homo sapiens (Human), UniProt P06493)
# Sequence (P06493 whole entry): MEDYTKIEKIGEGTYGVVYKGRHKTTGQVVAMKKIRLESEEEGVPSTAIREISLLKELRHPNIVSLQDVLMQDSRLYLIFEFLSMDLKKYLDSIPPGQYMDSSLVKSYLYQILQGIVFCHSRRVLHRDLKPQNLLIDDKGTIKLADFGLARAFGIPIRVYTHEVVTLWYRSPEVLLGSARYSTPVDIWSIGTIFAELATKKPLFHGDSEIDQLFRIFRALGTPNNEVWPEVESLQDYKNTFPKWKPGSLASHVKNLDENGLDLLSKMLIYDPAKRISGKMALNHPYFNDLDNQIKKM
# Sequence (P14635 whole entry partner): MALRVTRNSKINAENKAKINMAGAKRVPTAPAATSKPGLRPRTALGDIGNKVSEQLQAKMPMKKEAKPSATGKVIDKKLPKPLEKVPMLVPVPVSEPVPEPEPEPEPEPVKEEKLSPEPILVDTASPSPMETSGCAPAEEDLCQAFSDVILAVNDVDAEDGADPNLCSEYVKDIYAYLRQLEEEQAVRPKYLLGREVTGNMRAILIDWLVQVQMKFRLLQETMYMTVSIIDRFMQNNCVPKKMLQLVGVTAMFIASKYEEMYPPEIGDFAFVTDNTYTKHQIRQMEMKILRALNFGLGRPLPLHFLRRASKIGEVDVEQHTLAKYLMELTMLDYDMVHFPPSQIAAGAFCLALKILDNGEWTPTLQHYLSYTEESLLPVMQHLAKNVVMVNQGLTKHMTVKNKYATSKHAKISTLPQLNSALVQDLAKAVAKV
# protocol.notes: CDK1/Cyclin B1 kinase assay (Nanosyn, Caliper microfluidic)
# run.parameters: 12-point dose-response, singlicate, at Km for ATP; ATP 40 μM; 3 hr
pIC50: −log10 of the molar value.
Each item that follows carries a reported pIC50.
measure: pIC50

[
  {
    "molecule": "NS(=O)(=O)c1ccc(Nc2ncc3cc4n(c3n2)C2(CCCCC2)C(=O)N[C@@H]4CF)cc1",
    "quantitative.result": 7.70
  },
  {
    "molecule": "CC1=NNc2cc3cnc(Nc4ccc(S(N)(=O)=O)cc4)nc3n2C12CCCCC2",
    "quantitative.result": 6.97
  },
  {
    "molecule": "CN1NC(=O)C2(CCCCC2)n2c1cc1cnc(Nc3ccc(S(N)(=O)=O)cc3)nc12",
    "quantitative.result": 7.06
  },
  {
    "molecule": "C[C@@H]1NC(=O)C2(CCCCC2)n2c1cc1cnc(Nc3ccc(S(N)(=O)=O)cc3)nc12",
    "quantitative.result": 7.40
  },
  {
    "molecule": "CS(=N)(=O)c1ccc(Nc2ncc3cc4n(c3n2)C2(CCCCC2)C(=O)NN4)cc1 (centres unmarked)",
    "quantitative.result": 6.84
  }
]

* * *

# target.desc: CDK6/Cyclin D3 (Homo sapiens (Human))
# Sequence (Q00534 whole entry): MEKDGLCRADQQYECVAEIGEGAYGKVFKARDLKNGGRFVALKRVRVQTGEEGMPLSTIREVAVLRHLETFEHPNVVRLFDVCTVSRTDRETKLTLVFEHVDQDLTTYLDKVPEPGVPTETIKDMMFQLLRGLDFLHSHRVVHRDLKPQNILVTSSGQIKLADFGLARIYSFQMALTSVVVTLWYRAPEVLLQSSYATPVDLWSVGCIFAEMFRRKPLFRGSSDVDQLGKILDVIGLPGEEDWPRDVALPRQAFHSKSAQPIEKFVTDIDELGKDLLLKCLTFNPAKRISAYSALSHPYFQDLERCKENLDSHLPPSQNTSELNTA
# Sequence (P30281 whole entry partner): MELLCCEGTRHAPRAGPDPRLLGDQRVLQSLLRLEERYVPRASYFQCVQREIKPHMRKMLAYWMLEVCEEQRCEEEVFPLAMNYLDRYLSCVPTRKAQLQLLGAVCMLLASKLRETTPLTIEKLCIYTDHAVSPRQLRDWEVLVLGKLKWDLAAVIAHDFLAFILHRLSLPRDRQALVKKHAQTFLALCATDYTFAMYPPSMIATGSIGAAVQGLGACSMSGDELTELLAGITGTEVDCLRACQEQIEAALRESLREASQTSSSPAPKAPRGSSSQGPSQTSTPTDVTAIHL
# protocol.notes: CDK6/Cyclin D3 kinase assay (Nanosyn, Caliper microfluidic)
# run.parameters: 12-point dose-response, singlicate, at Km for ATP; ATP 300 μM; 3 hr
pIC50: −log10 of the molar value.
measure: pIC50

[
  {
    "compound": "CN1CCN(C(=O)c2ccc(Nc3ncc4cc5n(c4n3)C3(CCCCC3)C(=O)NC5O)cc2)CC1 (stereo not drawn)",
    "censoring.qualifier": "=",
    "quantitative.result": 8.30
  },
  {
    "compound": "Nc1ccc(S(=O)(=O)Nc2ncc3cc4n(c3n2)C2(CCCCC2)CNC4=O)cc1",
    "censoring.qualifier": "=",
    "quantitative.result": 6.04
  },
  {
    "compound": "NS(=O)(=O)c1ccc(Nc2ncc3cc4n(c3n2)C2(CCCCC2)C(=O)N[C@@H]4CF)cc1",
    "censoring.qualifier": "=",
    "quantitative.result": 7.35
  },
  {
    "compound": "Nc1ccc(S(=O)(=O)Nc2ncc3cc4n(c3n2)C2(CCCCC2)C(=O)NN4)cc1",
    "censoring.qualifier": "<",
    "quantitative.result": 6.00
  },
  {
    "compound": "CN(C)C(=O)c1ccc(Nc2ncc3cc4n(c3n2)C2(CCCCC2)C(=O)NN4)cc1",
    "censoring.qualifier": "=",
    "quantitative.result": 6.67
  },
  {
    "compound": "CC1=NNc2cc3cnc(Nc4ccc(S(N)(=O)=O)cc4)nc3n2C12CCCCC2",
    "censoring.qualifier": "<",
    "quantitative.result": 6.00
  },
  {
    "compound": "NS(=O)(=O)c1ccc(Nc2ncc3cc4n(c3n2)C2(CCCCC2)C(=O)NC4O)cc1 (stereo not drawn)",
    "censoring.qualifier": "=",
    "quantitative.result": 8.12
  },
  {
    "compound": "O=C(c1ccc(Nc2ncc3cc4n(c3n2)C2(CCCCC2)C(=O)NN4)cc1)N1CCOCC1",
    "censoring.qualifier": "=",
    "quantitative.result": 6.86
  },
  {
    "compound": "NS(=O)(=O)c1ccc(Nc2ncc3cc4n(c3n2)C2(CCCCC2)C(=O)N[C@H]4CF)cc1",
    "censoring.qualifier": "=",
    "quantitative.result": 6.82
  },
  {
    "compound": "CN1CCN(S(=O)(=O)c2ccc(Nc3ncc4cc5n(c4n3)C3(CCCCC3)CC(=O)N5)cc2)CC1",
    "censoring.qualifier": "=",
    "quantitative.result": 7.20
  },
  {
    "compound": "CN1N=CC2(CCCCC2)n2c1cc1cnc(Nc3ccc(S(N)(=O)=O)cc3)nc12",
    "censoring.qualifier": "=",
    "quantitative.result": 6.64
  },
  {
    "compound": "CC1=NN(C)c2cc3cnc(Nc4ccc(S(N)(=O)=O)cc4)nc3n2C12CCCCC2",
    "censoring.qualifier": "=",
    "quantitative.result": 7.08
  },
  {
    "compound": "NS(=O)(=O)c1ccc(Nc2ncc3cc4n(c3n2)C2(CCCCC2)CC(=O)N4)cc1",
    "censoring.qualifier": "=",
    "quantitative.result": 7.01
  },
  {
    "compound": "CN1CCN(C(=O)c2ccc(Nc3ncc4cc5n(c4n3)C3(CCCCC3)CC(=O)N5)cc2)CC1",
    "censoring.qualifier": "=",
    "quantitative.result": 8.15
  },
  {
    "compound": "CC1C(=O)Nc2cc3cnc(Nc4ccc(S(=O)(=O)N5CCN(C)CC5)cc4)nc3n2C12CCCCC2 (stereo not drawn)",
    "censoring.qualifier": "=",
    "quantitative.result": 6.91
  },
  {
    "compound": "CNC(=O)Nc1ccc(Nc2ncc3cc4n(c3n2)C2(CCCCC2)C(=O)NN4)cc1",
    "censoring.qualifier": "<",
    "quantitative.result": 6.00
  },
  {
    "compound": "CN1CCN(S(=O)(=O)c2ccc(Nc3ncc4cc5n(c4n3)C3(CCCCC3)C(=O)NC5O)cc2)CC1 (stereo not drawn)",
    "censoring.qualifier": "=",
    "quantitative.result": 7.29
  },
  {
    "compound": "CN1NC(=O)C2(CCCCC2)n2c1cc1cnc(Nc3ccc(S(N)(=O)=O)cc3)nc12",
    "censoring.qualifier": "=",
    "quantitative.result": 6.80
  },
  {
    "compound": "CS(=N)(=O)c1ccc(Nc2ncc3cc4n(c3n2)C2(CCCCC2)C(=O)NN4)cc1 (stereo not drawn)",
    "censoring.qualifier": "=",
    "quantitative.result": 6.54
  },
  {
    "compound": "CN1CCN(C(=O)c2ccc(Nc3ncc4cc5n(c4n3)C3(CCCCC3)C(=O)NN5)cc2)CC1",
    "censoring.qualifier": "=",
    "quantitative.result": 7.12
  },
  {
    "compound": "CNC(=O)c1ccc(Nc2ncc3cc4n(c3n2)C2(CCCCC2)C(=O)NN4)cc1",
    "censoring.qualifier": "=",
    "quantitative.result": 6.38
  }
]

* * *

# target.desc: CDK1/Cyclin B1 (Homo sapiens (Human), UniProt P06493)
# protocol.notes: CDK1/Cyclin B1 kinase assay (Nanosyn, Caliper microfluidic)
# run.parameters: 12-point dose-response, singlicate, at Km for ATP; ATP 40 μM; 3 hr
measure: log10(IC50) (log10 of the value in nM)

[
  {
    "compound": "CN1CCN(S(=O)(=O)c2ccc(Nc3ncc4cc5n(c4n3)C3(CCCCC3)CC(=O)N5)cc2)CC1",
    "log10(IC50)": 1.49
  },
  {
    "compound": "CNC(=O)c1ccc(Nc2ncc3cc4n(c3n2)C2(CCCCC2)C(=O)NN4)cc1",
    "log10(IC50)": 2.70
  },
  {
    "compound": "CN1CCN(C(=O)c2ccc(Nc3ncc4cc5n(c4n3)C3(CCCCC3)CC(=O)N5)cc2)CC1",
    "log10(IC50)": 1.08
  },
  {
    "compound": "CN1CCN(S(=O)(=O)c2ccc(Nc3ncc4cc5n(c4n3)C3(CCCCC3)C(=O)NN5)cc2)CC1",
    "log10(IC50)": 2.68
  },
  {
    "compound": "CC1C(=O)Nc2cc3cnc(Nc4ccc(S(N)(=O)=O)cc4)nc3n2C12CCCCC2 (centres unmarked)",
    "log10(IC50)": 0.85
  }
]
